Below, each entry is listed with its recorded IC50.
biological target: PTK2 (Homo sapiens, UniProt Q05397); construct: purchased Invitrogen PV3832; assay: PTK2 enzyme test, Assay 1 (DELFIA, PT60 antibody); assay type: biochemical; details: 1 h pre-incubation, 1 h kinase reaction, values without *
Sequence (Q05397 whole entry): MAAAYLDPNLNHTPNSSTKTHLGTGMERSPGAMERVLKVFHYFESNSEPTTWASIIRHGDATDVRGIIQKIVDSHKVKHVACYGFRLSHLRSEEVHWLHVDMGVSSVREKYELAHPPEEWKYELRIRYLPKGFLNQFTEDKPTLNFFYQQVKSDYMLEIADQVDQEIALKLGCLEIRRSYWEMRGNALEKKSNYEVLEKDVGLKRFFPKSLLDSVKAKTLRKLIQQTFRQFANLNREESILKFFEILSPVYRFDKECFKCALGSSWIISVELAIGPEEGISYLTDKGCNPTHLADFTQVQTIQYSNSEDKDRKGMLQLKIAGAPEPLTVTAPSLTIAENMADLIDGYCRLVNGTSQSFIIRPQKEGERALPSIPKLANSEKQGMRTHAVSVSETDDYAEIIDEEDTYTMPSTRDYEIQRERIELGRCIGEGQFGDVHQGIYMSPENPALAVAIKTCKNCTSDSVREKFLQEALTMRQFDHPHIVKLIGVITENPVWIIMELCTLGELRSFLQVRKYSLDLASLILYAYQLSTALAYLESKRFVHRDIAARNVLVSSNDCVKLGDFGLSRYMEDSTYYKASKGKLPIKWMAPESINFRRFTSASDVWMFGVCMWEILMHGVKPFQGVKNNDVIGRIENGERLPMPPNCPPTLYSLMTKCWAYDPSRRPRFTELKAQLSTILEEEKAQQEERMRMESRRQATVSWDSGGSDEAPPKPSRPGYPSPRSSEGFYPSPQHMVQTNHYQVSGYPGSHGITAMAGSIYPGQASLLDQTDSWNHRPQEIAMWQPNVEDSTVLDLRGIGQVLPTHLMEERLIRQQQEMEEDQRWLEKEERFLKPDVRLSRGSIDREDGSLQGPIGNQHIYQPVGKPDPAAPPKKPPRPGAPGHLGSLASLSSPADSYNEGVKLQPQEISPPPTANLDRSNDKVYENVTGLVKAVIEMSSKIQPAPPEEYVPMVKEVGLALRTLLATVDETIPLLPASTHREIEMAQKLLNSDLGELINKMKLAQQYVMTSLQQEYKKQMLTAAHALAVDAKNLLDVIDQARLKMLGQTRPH
measurement label: IC50 (nM)

INSERT INTO measurements (smiles_representation, tested_system, measurement_label, meas_value) VALUES
  ('COc1cc(C(=O)NC2CCN(C)CC2)c(F)cc1Nc1ncc(C(F)(F)F)c(O[C@@H]2CCC[C@H]2NS(C)(=O)=O)n1', 'PTK2 (Homo sapiens, UniProt Q05397)', 'IC50', 2),
  ('COc1cc(C(=O)N[C@H]2CC[C@H](O)CC2)c(F)cc1Nc1ncc(C(F)(F)F)c(O[C@@H]2Cc3ccccc3[C@H]2N(C)S(C)(=O)=O)n1', 'PTK2 (Homo sapiens, UniProt Q05397)', 'IC50', 7),
  ('Cc1nc2ccc(Nc3ncc(C(F)(F)F)c(O[C@@H]4CCC[C@H]4NS(C)(=O)=O)n3)cc2o1', 'PTK2 (Homo sapiens, UniProt Q05397)', 'IC50', 1);

---

Target: PTK2 (Homo sapiens, UniProt Q05397)
Construct: purchased Invitrogen PV3832
Experiment: PTK2 enzyme test, Assay 1 (DELFIA, PT60 antibody)
Assay type: biochemical
Details: 1 h pre-incubation, 1 h kinase reaction, values without *
Procedure: This test uses active PTK2 enzyme (Invitrogen Code PV3832) and poly-Glu-Tyr (4:1, Sigma P-0275) as the kinase substrate. The kinase activity is detected through the phosphorylation of the substrate in a DELFIA™ assay. The phosphorylated substrate is detected with the europium-labelled phosphotyrosine antibody PT60 (Perkin Elmer, No.: AD00400). […] The time-delayed europium fluorescence is then measured in a microtitre plate reader (VICTOR^3, Perkin Elmer). […]
Below, each entry is listed with its recorded IC50.
measurement label: IC50 (nM)

INSERT INTO assay_data (smiles_representation, meas_value) VALUES
  ('COc1cc(C(=O)NC2CCN(C)CC2)c(F)cc1Nc1ncc(C(F)(F)F)c(O[C@@H]2CCC[C@H]2NS(=O)(=O)CCl)n1', 5),
  ('CONC(=O)c1cc(OC)c(Nc2ncc(Cl)c(O[C@@H]3Cc4ccccc4[C@H]3N(C)S(C)(=O)=O)n2)cc1F', 22),
  ('COc1cc(C(=O)N[C@H]2CC[C@H](N3CCN(CC4CC4)CC3)CC2)c(F)cc1Nc1ncc(Cl)c(O[C@@H]2Cc3ccccc3[C@H]2N(C)S(C)(=O)=O)n1', 6);

---

target: PTK2 (Homo sapiens); construct: purchased Invitrogen PV3832; test: PTK2 enzyme test, Assay 1 (DELFIA, PT60 antibody); format: biochemical; conditions: 1 h pre-incubation, 1 h kinase reaction, values without *
pIC50: −log10 of the molar value.
Below, each entry is listed with its recorded pIC50.
measurement label: pIC50

INSERT INTO measurements (compound, measurement_label, meas_value) VALUES
  ('COc1cc(C(=O)N[C@H]2CC[C@H](N3CCN(CC4CC4)CC3)CC2)c(F)cc1Nc1ncc(C(F)(F)F)c(O[C@@H]2Cc3ccccc3[C@H]2N(C)S(C)(=O)=O)n1 [Example 7]', 'pIC50', 8.10),
  ('CONC(=O)c1cc(OC)c(Nc2ncc(Cl)c(O[C@@H]3Cc4ccccc4[C@H]3N(C)S(C)(=O)=O)n2)cc1Cl [Example 38]', 'pIC50', 9.00),
  ('COc1cc(C(=O)NC[C@@H](O)CO)ccc1Nc1ncc(C(F)(F)F)c(O[C@@H]2Cc3ccccc3[C@H]2N(C)S(C)(=O)=O)n1 [Example 50]', 'pIC50', 8.40),
  ('COc1cc(C(=O)NC2CCN(C)CC2)c(F)cc1Nc1ncc(C(F)(F)F)c(O[C@@H]2Cc3ccccc3[C@H]2N(C)S(C)(=O)=O)n1 [Example 25]', 'pIC50', 8.70),
  ('COc1cc(C(=O)NC2CCN(C)CC2)ccc1Nc1ncc(C(F)(F)F)c(O[C@@H]2Cc3ccccc3[C@H]2N(C)S(C)(=O)=O)n1 [Example 27]', 'pIC50', 9.00),
  ('COc1cc(C(=O)NN2CCN(C)CC2)ccc1Nc1ncc(C(F)(F)F)c(O[C@@H]2CCC[C@H]2NS(C)(=O)=O)n1 [Example 73]', 'pIC50', 8.70);

---

biological target: PTK2 (Homo sapiens); construct: purchased Invitrogen PV3832; experiment: PTK2 enzyme test, Assay 1 (DELFIA, PT60 antibody); format: biochemical; settings: 1 h pre-incubation, 1 h kinase reaction, values without *
Below, each entry is listed with its recorded IC50.
measurement label: IC50 (nM)

INSERT INTO results (molecule, unit_abbreviation, meas_value) VALUES
  ('COc1cc(C(=O)NN2CCN(C)CC2)ccc1Nc1ncc(C(F)(F)F)c(O[C@@H]2Cc3ccccc3[C@H]2N(C)S(C)(=O)=O)n1', 'nM', 4),
  ('COc1cc(C(=O)N[C@H]2CC[C@H](N3CCN(CC4CC4)CC3)CC2)ccc1Nc1ncc(C(F)(F)F)c(O[C@@H]2Cc3ccccc3[C@H]2N(C)S(C)(=O)=O)n1', 'nM', 4),
  ('COc1cc(C(=O)NCC(O)CO)ccc1Nc1ncc(C(F)(F)F)c(O[C@@H]2Cc3ccccc3[C@H]2N(C)S(C)(=O)=O)n1 (stereo partly shown)', 'nM', 4),
  ('COc1cc(C(=O)NN2CCN(C)CC2)c(F)cc1Nc1ncc(C(F)(F)F)c(O[C@@H]2CCC[C@H]2NS(C)(=O)=O)n1', 'nM', 4);

---

Biological target: PTK2 (Homo sapiens)
Construct: purchased Invitrogen PV3832
Assay: PTK2 enzyme test, Assay 1 (DELFIA, PT60 antibody)
Type: biochemical
Settings: 1 h pre-incubation, 1 h kinase reaction, values without *
Procedure: This test uses active PTK2 enzyme (Invitrogen Code PV3832) and poly-Glu-Tyr (4:1, Sigma P-0275) as the kinase substrate. The kinase activity is detected through the phosphorylation of the substrate in a DELFIA™ assay. The phosphorylated substrate is detected with the europium-labelled phosphotyrosine antibody PT60 (Perkin Elmer, No.: AD00400). […] The time-delayed europium fluorescence is then measured in a microtitre plate reader (VICTOR^3, Perkin Elmer). […]
pIC50: −log10 of the molar value.
Below, each entry is listed with its recorded pIC50.
measurement label: pIC50

INSERT INTO results (compound, tested_system, meas_value) VALUES
  ('COc1ccc(C(=O)NCCCN(C)C)cc1Nc1ncc(C(F)(F)F)c(O[C@@H]2Cc3ccccc3[C@H]2N(C)S(C)(=O)=O)n1 [Example 82]', 'PTK2 (Homo sapiens)', 9.42),
  ('COc1cc(C(=O)NC[C@H](O)CO)c(F)cc1Nc1ncc(C(F)(F)F)c(O[C@@H]2Cc3ccccc3[C@H]2N(C)S(C)(=O)=O)n1 [Example 65]', 'PTK2 (Homo sapiens)', 8.00),
  ('COc1cc(C(=O)NCCN(C)C)ccc1Nc1ncc(C(F)(F)F)c(O[C@@H]2Cc3ccccc3[C@H]2N(C)S(C)(=O)=O)n1 [Example 14]', 'PTK2 (Homo sapiens)', 8.52),
  ('COc1cc(C(=O)NCC(C)(C)C)c(Cl)cc1Nc1ncc(Cl)c(O[C@@H]2Cc3ccccc3[C@H]2N(C)S(C)(=O)=O)n1 [Example 39]', 'PTK2 (Homo sapiens)', 8.22),
  ('COc1cc(C(=O)NC[C@@H](O)CO)c(Cl)cc1Nc1ncc(Cl)c(O[C@@H]2Cc3ccccc3[C@H]2N(C)S(C)(=O)=O)n1 [Example 42]', 'PTK2 (Homo sapiens)', 8.40);
